Target: human platelets (Homo sapiens, UniProt P21731)
Construct: Platelet-rich plasma is obtained from fresh, citrated human blood; endogenous in cells; host or cells: human platelets in platelet-rich plasma
Assay: Human platelet system, antagonism of aggregation by 11,9-(epoxymethano) PGH2 (affinity constant KB)
Type: cell-based
Conditions: vs 11,9-(epoxymethano) PGH2; compound added 5 min before; Gaddum-Schild; read-out: Affinity Constants, Human Platelets (KB) (converted)
readout-kind: Kb (nM)

Consider the following illustrative entries.
- compound: "O=C(O)CCC/C=C\\C[C@H]1[C@H]2CC[C@H](C2)[C@@H]1C=NOCCOC(c1ccccc1)c1ccccc1 (relative stereo)"
  readout-kind: "Kb"
  result-number: 4350
- compound: "Cn1c(=NN=C[C@H]2[C@@H]3CC[C@@H](C3)[C@@H]2C/C=C\\CCCC(=O)O)sc2ccccc21 (relative stereo)"
  readout-kind: "Kb"
  result-number: 3450
- compound: "O=C(O)CCC/C=C\\C[C@@H]1CC=CC[C@H]1C=NOCc1ccc(F)cc1 (relative stereo)"
  readout-kind: "Kb"
  result-number: 8330
- compound: "CC(=NNC(=S)Nc1cccc(F)c1)[C@H]1[C@@H]2CC[C@@H](C2)[C@@H]1C/C=C\\CCCC(=O)O (relative stereo)"
  readout-kind: "Kb"
  result-number: 45.5

a: COc1ccc(NC(=S)NN=C(C)[C@H]2[C@@H]3CC[C@@H](C3)[C@@H]2C/C=C\CCCC(=O)O)cc1 (relative stereo)
b: COc1ccc(NC(=O)NN=C(C)[C@H]2C3CCC(CC3)[C@@H]2C/C=C\CCCC(=O)O)cc1 (relative stereo)
Lab note: check whether a or b shows the higher recorded Kb. Mark your selection by writing its label. a

I: CC(=NNC(=S)Nc1cccnc1)[C@H]1C2CCC(CC2)[C@@H]1C/C=C\CCCC(=O)O (relative stereo)
II: O=C(O)CCC/C=C\C[C@H]1[C@H]2CC[C@H](C2)[C@@H]1C=NNc1nc2ccccc2o1 (relative stereo)
III: CCC(=NNC(=S)Nc1ccccc1)[C@H]1[C@@H]2CC[C@@H](C2)[C@@H]1C/C=C\CCCC(=O)O (relative stereo)
IV: CC1(C)[C@H]2C[C@H](C/C=C\CCCC(=O)O)C(C=NNC(=O)Nc3ccccc3)[C@@H]1C2 (single isomer, unassigned)
Please rank these compounds by Kb in descending order. Ranked list of labels, please, in the requested order. II, IV, I, III
(II: 5560 nM, IV: 2000 nM, I: 667 nM, III: 256 nM)

A: CC(=NNC(=O)Nc1ccccc1)[C@H]1C[C@H]2C[C@@H]([C@@H]1C/C=C\CCCC(=O)O)C2(C)C
B: CC1(C)[C@H]2C[C@H](C=NNC(=S)Nc3ccccc3)[C@@H](C/C=C\CCCC(=O)O)[C@@H]1C2
Of A and B , which shows the smaller Kb value? Mark your selection by writing its label. A

1: O=C(O)CCC/C=C\C[C@H]1[C@H]2CC[C@H](C2)[C@@H]1C=NNC(=S)NCc1ccccc1 (relative stereo) [drawing 41]
2: O=C(O)CCC/C=C\C[C@@H]1CC=CC[C@H]1C=NNC(=S)Nc1ccccc1 (relative stereo)
Lab note: check whether 1 or 2 shows the higher recorded Kb. Mark your selection by writing its label. 1
(1: 1280 nM, 2: 500 nM)

====

Biological target: human platelets (Homo sapiens, UniProt P21731)
Construct: Platelet-rich plasma is obtained from fresh, citrated human blood; endogenous in cells; host or cells: human platelets in platelet-rich plasma
Sequence (P21731 1-343): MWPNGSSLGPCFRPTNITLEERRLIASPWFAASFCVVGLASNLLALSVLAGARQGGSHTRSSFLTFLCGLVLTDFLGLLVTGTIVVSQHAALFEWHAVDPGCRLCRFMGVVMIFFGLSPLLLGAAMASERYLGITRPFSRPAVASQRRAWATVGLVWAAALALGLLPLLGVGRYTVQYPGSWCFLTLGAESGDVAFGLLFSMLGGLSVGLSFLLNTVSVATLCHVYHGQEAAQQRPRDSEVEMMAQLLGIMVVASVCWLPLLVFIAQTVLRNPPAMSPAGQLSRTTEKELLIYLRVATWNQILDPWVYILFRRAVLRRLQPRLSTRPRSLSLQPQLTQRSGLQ
Test: Human platelet system, antagonism of aggregation by 11,9-(epoxymethano) PGH2 (affinity constant KB)
Format: cell-based
Conditions: vs 11,9-(epoxymethano) PGH2; compound added 5 min before; Gaddum-Schild; read-out: Affinity Constants, Human Platelets (KB) (converted)
readout-kind: Kb (nM)

- compound: "CC(=NNC(=S)Nc1ccccc1)[C@H]1[C@@H]2CC[C@@H](C2)[C@@H]1C/C=C\\CCCC(=O)O (relative stereo) [drawing 42]"
  unit-name: "nM"
  Kb: 50
- compound: "CC(=NNC(=S)Nc1cccc(C(F)(F)F)c1)[C@H]1[C@@H]2CC[C@@H](C2)[C@@H]1C/C=C\\CCCC(=O)O (relative stereo)"
  unit-name: "nM"
  Kb: 189

a: O=C(O)CCC/C=C\C[C@H]1[C@H]2CC[C@H](C2)[C@@H]1C=NNC(=S)Nc1ccccc1 (relative stereo)
b: Cc1ccc(S(=O)(=O)NN=C[C@H]2[C@@H]3CC[C@@H](C3)[C@@H]2C/C=C\CCCC(=O)O)cc1 (relative stereo)
c: CC(=NNC(=S)Nc1ccccc1)[C@H]1C2CCC(CC2)[C@@H]1C/C=C\CCCC(=O)O (relative stereo)
d: COc1cccc(NC(=S)NN=C(C)[C@H]2[C@@H]3CC[C@@H](C3)[C@@H]2C/C=C\CCCC(=O)O)c1 (relative stereo)
Please list these in order of increasing Kb. Thank you! Ranked list of labels, please, in the requested order. c, d, a, b
(c: 47.6 nM, d: 118 nM, a: 263 nM, b: 667 nM)
